Target: T1, BCMA on BCMA-positive NCI-H929, ARP-1 and U266B1 cells (human, UniProt Q02223 1-184)
T1 sequence: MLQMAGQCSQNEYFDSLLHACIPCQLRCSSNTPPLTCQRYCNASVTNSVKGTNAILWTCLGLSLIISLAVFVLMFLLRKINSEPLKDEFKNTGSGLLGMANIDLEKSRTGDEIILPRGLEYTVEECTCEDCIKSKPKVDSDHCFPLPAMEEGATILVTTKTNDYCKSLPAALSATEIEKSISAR
Assay: cell-based or functional assay
1.0 if ARP-1, SC239-conjugated 2° antibody cell killing, EC50 is below 1 nM. 0.0 if not; exact matches included in 0.0.

Query: Answer whether the binder 9E12 (antibody, V domains shown, chicken HybriFree-derived antibody; also called Antibody 43) VH: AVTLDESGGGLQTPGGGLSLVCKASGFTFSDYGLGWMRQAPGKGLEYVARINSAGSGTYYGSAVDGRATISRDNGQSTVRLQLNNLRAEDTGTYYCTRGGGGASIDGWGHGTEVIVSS VL: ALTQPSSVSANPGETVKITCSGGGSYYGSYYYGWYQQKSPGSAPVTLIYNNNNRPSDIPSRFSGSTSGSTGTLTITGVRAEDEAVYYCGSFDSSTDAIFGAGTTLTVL has ARP-1, SC239-conjugated 2° antibody cell killing, EC50 strictly less than 1 nM
Reply: 0.0

Query: I wonder whether 9H1 (antibody, V domains shown, chicken HybriFree-derived antibody; also called Antibody 44) VH: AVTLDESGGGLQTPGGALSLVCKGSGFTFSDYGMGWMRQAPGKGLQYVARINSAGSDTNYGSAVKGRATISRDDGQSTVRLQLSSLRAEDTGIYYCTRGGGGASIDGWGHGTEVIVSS VL: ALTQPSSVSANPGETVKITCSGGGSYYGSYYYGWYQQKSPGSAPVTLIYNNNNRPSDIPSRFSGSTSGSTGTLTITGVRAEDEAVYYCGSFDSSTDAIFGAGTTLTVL has ARP-1, SC239-conjugated 2° antibody cell killing, EC50 below 1 nM. Can you tell?
Reply: 0.0

Query: Bench note: check whether 10H1 (antibody, V domains shown, chicken HybriFree-derived antibody; also called Antibody 45) VH: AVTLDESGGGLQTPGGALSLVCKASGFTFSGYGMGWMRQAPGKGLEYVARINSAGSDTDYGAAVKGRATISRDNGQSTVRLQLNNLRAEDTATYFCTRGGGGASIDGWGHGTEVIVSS VL: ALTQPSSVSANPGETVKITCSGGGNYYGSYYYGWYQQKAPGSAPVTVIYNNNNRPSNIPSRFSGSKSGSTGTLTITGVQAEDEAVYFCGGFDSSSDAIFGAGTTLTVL shows ARP-1, SC239-conjugated 2° antibody cell killing, EC50 below 1 nM
Reply: 1.0

Query: is_below(ARP-1, SC239-conjugated 2° antibody cell killing, EC50, 1 nM) for 11D6 (antibody, V domains shown, chicken HybriFree-derived antibody; also called Antibody 32) VH: AVTLDESGGGLQTPGGTLSLVCKASGFTFSSFNMFWVRQAPGEGLEWVAYIRNDGRSTSYGPAVKGRATISRDNGQSTVRLQLNNLRAEDTGTYFCAKTTCVGSGGCIDTWGHGTEVIVSS VL: ALTQPSSVSANPGETVEITCSGGNSDYGWFQQKSPGSAPVTVIYRNNQRPSDIPSRFSGSGSGSTNTLTITGVQAEDEAIYYCGNVDFTDDVFGAGTTLTVL ?
Reply: 0.0

Query: Is 1 nM strictly greater than the binder's reported ARP-1, SC239-conjugated 2° antibody cell killing, EC50? binder: 9A5 (antibody, V domains shown, chicken HybriFree-derived antibody; also called Antibody 42) VH: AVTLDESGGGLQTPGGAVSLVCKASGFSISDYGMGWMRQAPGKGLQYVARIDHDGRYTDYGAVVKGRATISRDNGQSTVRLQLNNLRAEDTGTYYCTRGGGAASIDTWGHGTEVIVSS VL: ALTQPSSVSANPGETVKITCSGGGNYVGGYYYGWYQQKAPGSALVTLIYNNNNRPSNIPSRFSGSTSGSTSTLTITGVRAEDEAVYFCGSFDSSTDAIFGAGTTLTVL
Reply: 1.0
